Test: Bioavailability in rat at 2 mg/kg, iv or 5 mg/kg, po
Format: ADME, organism-based
Settings: in vivo
quantity: bioavailability (%)
Value expressed in %; do not type the unit.

Req: Report bioavailability, nothing else, for this molecule: Cc1nc([C@H](C(=O)N2CCC2)N2C(=O)[C@@H](C3Cc4ccccc4C3)NC(=O)[C@H]2CC(C)C)co1
Resp: 45

Req: Output measured bioavailability for this item: CC[C@@H](C)[C@@H]1C(=O)N[C@H](C2Cc3ccccc3C2)C(=O)N1[C@@H](C(=O)N1CCOCC1)c1coc(C)n1
Resp: 69

Req: Please supply the value of reported bioavailability for the item CC[C@H](C)[C@@H]1C(=O)N[C@H](C2Cc3ccccc3C2)C(=O)N1[C@@H](C(=O)N1CCOCC1)c1coc(C)n1 [RETOSIBAN]
Resp: 100

Req: Provide measured bioavailability value, entry: Cc1nc([C@H](C(=O)N2CCOCC2)N2C(=O)[C@@H](C3Cc4ccccc4C3)NC(=O)[C@H]2CC(C)C)co1
Resp: 33
